Values compiled from PubChem BioAssay.

test_name: growth inhibition, single agents and combos, ICB984, cell-based, cisplatin or BGB combos, synergistic combos for chromothripsis tumors (AID 1671451);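 note: cells exposed for 96 hours before readout; 0% = vehicle DMSO and 100% = killing by high DMSO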
test_parameters: ICB984 medulloblastoma cells, drug combinations, cisplatin combo, at 0.05 µM, stronger effect = higher value
If the reported inhibition equals or exceeds -10%, assign 1 (yes). If not, assign 0 (no).

I'd appreciate it if you could say whether Cc1ccc(NC(=O)CCCCCC(=O)Nc2ccccc2N)cc1 has inhibition at least equal to -10%. 1 (yes)

I'd appreciate it if you could say whether CC1CNC(=O)NC1=O (stereo unspecified) has inhibition at least equal to -10%. 0 (no)

I'd appreciate it if you could say whether CC1OC(n2cc(F)c(=O)[nH]c2=O)C(O)C1O (stereo unspecified) has inhibition at least equal to -10%. 0 (no)

I'd appreciate it if you could say whether CC(=O)C1(O)Cc2c(O)c3c(c(O)c2C(OC2CC(N)C(O)C(C)O2)C1)C(=O)c1ccccc1C3=O (stereo unspecified) has inhibition at least equal to -10%. 1 (yes)

I'd appreciate it if you could say whether Cc1cc(C)cc(C(=O)NOCCCCCC(=O)NO)c1 has inhibition at least equal to -10%. 1 (yes)

I'd appreciate it if you could say whether CC(C=CC(=O)NO)=CC(C)C(=O)c1ccc(N(C)C)cc1 (stereo unspecified) has inhibition at least equal to -10%. 1 (yes)

I'd appreciate it if you could say whether CC(C)(O)[C@H]1CC[C@@](C)(C2[C@@H](O)C[C@@]3(C)[C@@H]4C[C@H](O)C5C(C)(C)[C@@H](O)CCC56CC46CC[C@]23C)O1 (stereo partly specified) has inhibition at least equal to -10%. 0 (no)

I'd appreciate it if you could say whether Cc1cc(C)c(Nc2ccnc(Nc3ccc(C#N)cc3)n2)c(C)c1 has inhibition at least equal to -10%. 0 (no)

I'd appreciate it if you could say whether NC(=S)NN=Cc1ncccc1N has inhibition at least equal to -10%. 0 (no)

I'd appreciate it if you could say whether C#CCC(CCCCCC)C(=O)O (stereo unspecified) has inhibition at least equal to -10%. 0 (no)

I'd appreciate it if you could say whether C[C@H](NC(=O)c1ccccc1N=Cc1c(O)ccc2ccccc12)c1ccccc1 has inhibition at least equal to -10%. 1 (yes)
